target: Transient receptor potential cation channel subfamily M member 5 (Homo sapiens, UniProt Q9NZQ8); experiment: Agonist activity at human TRPM5 expressed in CHO-K1 cells maintained at 80 mV final holding potential by syncroPatch assay; assay type: cell-based
Sequence (Q9NZQ8 whole entry): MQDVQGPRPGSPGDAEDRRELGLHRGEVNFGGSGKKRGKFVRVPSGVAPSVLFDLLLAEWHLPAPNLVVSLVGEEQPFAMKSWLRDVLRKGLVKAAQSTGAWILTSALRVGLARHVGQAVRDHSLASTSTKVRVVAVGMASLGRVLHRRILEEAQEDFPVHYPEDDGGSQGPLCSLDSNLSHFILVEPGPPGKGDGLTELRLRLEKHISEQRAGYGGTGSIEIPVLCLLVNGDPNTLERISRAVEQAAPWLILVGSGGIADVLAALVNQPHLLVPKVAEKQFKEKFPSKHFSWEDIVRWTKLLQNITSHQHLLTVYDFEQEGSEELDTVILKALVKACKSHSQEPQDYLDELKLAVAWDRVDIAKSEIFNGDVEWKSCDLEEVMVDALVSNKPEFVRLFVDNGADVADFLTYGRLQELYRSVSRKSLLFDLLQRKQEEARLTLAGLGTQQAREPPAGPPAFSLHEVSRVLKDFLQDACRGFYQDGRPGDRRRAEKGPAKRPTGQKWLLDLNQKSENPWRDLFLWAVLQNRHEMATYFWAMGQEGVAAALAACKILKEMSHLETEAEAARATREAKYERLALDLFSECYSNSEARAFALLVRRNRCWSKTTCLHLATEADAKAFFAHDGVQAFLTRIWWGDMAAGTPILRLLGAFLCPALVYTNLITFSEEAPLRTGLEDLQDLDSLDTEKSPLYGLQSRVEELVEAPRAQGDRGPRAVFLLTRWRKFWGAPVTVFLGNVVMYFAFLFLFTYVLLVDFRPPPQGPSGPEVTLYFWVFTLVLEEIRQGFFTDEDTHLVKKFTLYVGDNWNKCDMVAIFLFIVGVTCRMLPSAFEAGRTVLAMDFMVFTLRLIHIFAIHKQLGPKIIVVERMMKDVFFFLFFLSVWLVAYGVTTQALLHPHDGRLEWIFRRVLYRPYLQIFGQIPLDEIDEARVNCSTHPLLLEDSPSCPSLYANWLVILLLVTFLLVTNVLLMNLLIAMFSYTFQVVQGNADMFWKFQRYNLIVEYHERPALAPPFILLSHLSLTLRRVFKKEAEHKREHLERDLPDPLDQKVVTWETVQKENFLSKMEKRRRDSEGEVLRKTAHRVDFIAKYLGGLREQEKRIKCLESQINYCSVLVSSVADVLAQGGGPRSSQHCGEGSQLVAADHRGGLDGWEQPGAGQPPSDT
MEASURE_NAME: EC50 (µM)

Some solved entries appear below for comparison.
SAMPLE_SMILES: Cn1c(Cl)cnc1CNc1ccc2oncc2c1
EC50, µM: 3.02
//
SAMPLE_SMILES: Clc1cnc(CNc2ccc3sncc3c2)s1
EC50, µM: 0.0891

P: Cc1cc2sncc2cc1NCc1ncc(Cl)s1
Q: CN(Cc1ncc(Cl)s1)c1cc2cnsc2cc1F
R: Cc1cnc(CNc2ccc3sncc3c2)s1
S: CN(Cc1ncc(Cl)s1)c1cc2cnsc2cc1Cl
Ask | Please order the records by their reported EC50, lowest number first. Submit the labels in the order that the ranking request calls for.
Reply | P, R, S, Q
(P: 0.0389 µM, R: 0.575 µM, S: 1.62 µM, Q: 2.82 µM)
